A collection of compounds and their measured growth
# System: KM12 colon
# Test Summary: NCI-60 one-dose screen, 48 h (100 = growth as untreated, 0 = no growth, -100 = all killed)
# Test Settings: 10 µM unless noted
Compounds without any hit were thinned out: in the full panel of roughly 83,000, 20% have a hit.

{"Smiles Entry": "COc1ccc(N2CCN(c3nc(-c4cc(OC)c(OC)c(OC)c4)nc4ccccc34)CC2)cc1", "growth [%]": 70}
{"Smiles Entry": "COC(=O)[C@]12CC[C@@H](C)[C@H](C)[C@@H]1C1=CC[C@@H]3[C@@]4(C)C(C=O)=C[C@@](C)(COC(=O)/C=C/c5ccccc5)[C@@H]4[C@H](O)C[C@@]3(C)[C@]1(C)CC2", "growth [%]": 6.25}
{"Smiles Entry": "N/C(=N\\c1nc2ccccc2s1)NC(=O)Nc1cccc(Cl)c1", "growth [%]": 22.9}
{"Smiles Entry": "CCN1CCN(c2nc(C)cc(NCc3cc(Nc4ccnc5cc(Cl)ccc45)ccc3F)n2)CC1", "growth [%]": 26.9}
{"Smiles Entry": "O=C(NCCNc1cc(-c2cn(-c3ccccc3)nc2-c2cccc(O)c2)ccn1)Nc1ccccc1", "growth [%]": 89.2}
{"Smiles Entry": "S=C(Cc1ccc2c(c1)CCCC2)N1CCOCC1", "growth [%]": 106}
{"Smiles Entry": "N#Cc1c(N)nc2c(C#N)c(NC(=O)c3ccccc3)nn2c1-c1ccccc1", "growth [%]": 95.7}
{"Smiles Entry": "COc1ccc(-c2cc(-c3ccc(Nc4nc(Nc5ccc(Cl)cc5)nc(Nc5ccc(Cl)cc5)n4)cc3)nc(N)c2C#N)cc1", "growth [%]": 27.7}
{"Smiles Entry": "c1csc(-c2c3ccc(=[N+]4CCCCC4)cc-3oc3cc(N4CCCCC4)ccc23)c1", "growth [%]": -92.9}
{"Smiles Entry": "O=C(COc1ccc(/C=C2\\Oc3ccccc3C2=O)cc1)Nc1nc2c(s1)CCCC2", "growth [%]": -75}
{"Smiles Entry": "CC/C=C\\C/C=C\\C[C@H](O)C/C=C1/C(=O)C=C[C@@H]1C/C=C\\CCCC(=O)O", "growth [%]": 6.23}
{"Smiles Entry": "CNC(=O)c1cc(Oc2ccc3nc(Nc4ccc(Cl)c(C(F)(F)F)c4)ccc3c2)ccn1", "growth [%]": 52.7}
{"Smiles Entry": "Cc1ccc(Cl)cc1NC(=O)c1cc2ccccc2cc1O", "growth [%]": -29.4}

* * *

# System: OVCAR-8 ovarian
# Test Summary: NCI-60 one-dose screen, 48 h (100 = growth as untreated, 0 = no growth, -100 = all killed)
# Test Settings: 10 µM unless noted
About 83,000 compounds went through this panel and 20% of them were active in at least one assay; those are over-represented in the sample as a whole. The source made the active and inactive calls. The calls were made as follows: active = growth percent below 10; inactive = the rest.

{"Molecule": "COc1ccc(-c2ccc3c(c2)sc2nc(-c4ccc(F)cc4)cn23)cc1", "Measurement Target": "OVCAR-8 ovarian", "growth": "68.5% (inactive)"}
{"Molecule": "CN(C)CCCn1c(=O)c2ccccc2c2ccccc21", "Measurement Target": "OVCAR-8 ovarian", "growth": "49.8% (inactive)"}
{"Molecule": "C[C@@H]1N=C(c2ccc3ccccc3n2)Nc2nc3ccccn3c2C1=O", "Measurement Target": "OVCAR-8 ovarian", "growth": "101% (inactive)"}
{"Molecule": "CCN(CC)c1ccc(C(=O)c2ccc(N(CC)CC)cc2)cc1", "Measurement Target": "OVCAR-8 ovarian", "growth": "32.2% (inactive)"}
{"Molecule": "NC(N)=Nc1nc2ccccc2n2c1nc1ccccc12", "Measurement Target": "OVCAR-8 ovarian", "growth": "25.5% (inactive)"}
{"Molecule": "CCN1CCN(c2cc(C)nc(NCc3cc(Nc4ccnc5cc(Cl)ccc45)ccc3F)n2)CC1", "Measurement Target": "OVCAR-8 ovarian", "growth": "69.6% (inactive)"}
{"Molecule": "CCN(CC)c1nc(SCC(=O)Nc2nc3ccc(C)cc3s2)nc(-c2ccccc2)c1C#N", "Measurement Target": "OVCAR-8 ovarian", "growth": "89.5% (inactive)"}
{"Molecule": "CCN(CC)CCCNc1ccc(Nc2ccc(OC)cc2)cc1", "Measurement Target": "OVCAR-8 ovarian", "growth": "83.1% (inactive)"}
{"Molecule": "Cc1c(C(=O)NC(Cc2ccccc2)C(O)C(=O)NCc2ccc(F)cc2)[nH]c2ccccc2c1=O (stereo not given)", "Measurement Target": "OVCAR-8 ovarian", "growth": "103% (inactive)"}
{"Molecule": "C#CCOc1nc(C)cc(C)c1C#N", "Measurement Target": "OVCAR-8 ovarian", "growth": "102% (inactive)"}
{"Molecule": "COc1ccc(-c2nc(SCCC(C)C)nc(N/N=C\\c3cccc([N+](=O)[O-])c3)c2C#N)cc1", "Measurement Target": "OVCAR-8 ovarian", "growth": "39.7% (inactive)"}
{"Molecule": "C=C1C(=O)O[C@H]2[C@H]1CC/C(COC(=O)C(=O)c1cn(C)c3ccc(OC)cc13)=C\\CC[C@@]1(C)O[C@@H]21", "Measurement Target": "OVCAR-8 ovarian", "growth": "-9.07% (active)"}
{"Molecule": "CCOc1ccccc1-n1c(CN2CCN(C(=O)COc3ccc(CNCCCCCCN4C5CCCC4CC(OC(=O)Nc4cc(C)ccc4OC)C5)cc3)CC2)nc2ccccc2c1=O (stereo not given)", "Measurement Target": "OVCAR-8 ovarian", "growth": "-88.4% (active)"}
{"Molecule": "COC(=O)[C@]12CC[C@@H](C)[C@H](C)[C@@H]1C1=CC[C@@H]3[C@@]4(C)C(C=O)=C[C@@](C)(CO)[C@@H]4[C@H](O)C[C@@]3(C)[C@]1(C)CC2", "Measurement Target": "OVCAR-8 ovarian", "growth": "-2.42% (active)"}
{"Molecule": "Cc1ccc(C(=O)CSc2nc(-c3ccc(Br)cc3)c(C#N)c(=O)[nH]2)cc1", "Measurement Target": "OVCAR-8 ovarian", "growth": "88.8% (inactive)"}
{"Molecule": "O=C(Nc1cccc(Oc2nnc(Cl)c3ccccc23)c1)Nc1ccc(Cl)c(C(F)(F)F)c1", "Measurement Target": "OVCAR-8 ovarian", "growth": "-16.8% (active)"}
{"Molecule": "Cc1ccc(/C=C/c2c(C(=O)/C=C/c3ccc(Cl)cc3)c(C)nc3ccccc23)cc1", "Measurement Target": "OVCAR-8 ovarian", "growth": "13% (inactive)"}
{"Molecule": "Cn1cc(-c2csc(-c3ccccc3)n2)c2cccnc21", "Measurement Target": "OVCAR-8 ovarian", "growth": "2.29% [100 µM] (active)"}
{"Molecule": "COc1ccc(CN2C(=O)C(Cl)=C(Nc3cccc(C(F)(F)F)c3)C2=O)cc1", "Measurement Target": "OVCAR-8 ovarian", "growth": "42.5% (inactive)"}
{"Molecule": "COc1ccccc1NC(=O)N/C(N)=N/c1nc2ccccc2s1", "Measurement Target": "OVCAR-8 ovarian", "growth": "27.1% (inactive)"}
{"Molecule": "Cc1cc(Cl)ccc1Nc1nc(C(F)(F)F)ccc1C(=O)N/N=C/c1ccc(N(C)C)cc1", "Measurement Target": "OVCAR-8 ovarian", "growth": "18.7% (inactive)"}
{"Molecule": "O=C(CCc1nnc(CN(c2ccccc2)c2ccccc2)o1)c1nc2ccccc2[nH]1", "Measurement Target": "OVCAR-8 ovarian", "growth": "88.3% (inactive)"}
{"Molecule": "N#Cc1c(N2CCNCC2)nc2sc3cc(Cl)c(Cl)cc3n2c1=N", "Measurement Target": "OVCAR-8 ovarian", "growth": "94.5% (inactive)"}
{"Molecule": "NCCCNc1nc2ccccc2c2c(=O)c3cccc(Cl)c3sc12", "Measurement Target": "OVCAR-8 ovarian", "growth": "-16.2% (active)"}
{"Molecule": "CCc1c2c(nc3ccc(OC(=O)OCc4ccc(B5OC(C)(C)C(C)(C)O5)cc4)cc13)-c1cc3c(c(=O)n1C2)COC(=O)[C@]3(O)CC", "Measurement Target": "OVCAR-8 ovarian", "growth": "0.492% (active)"}
{"Molecule": "CC/C=C\\C/C=C\\C[C@H](O)C/C=C1/C(=O)C=C[C@@H]1C/C=C\\CCCC(=O)O", "Measurement Target": "OVCAR-8 ovarian", "growth": "-4.92% (active)"}
{"Molecule": "N#Cc1nc(C#N)c(Sc2ccccc2)c(Sc2ccccc2)c1Sc1ccccc1", "Measurement Target": "OVCAR-8 ovarian", "growth": "3.62% (active)"}
{"Molecule": "CN(C)CCNc1nc2ccccc2c2c1c1c(n2Cc2ccccc2)-c2ccccc2C1=O", "Measurement Target": "OVCAR-8 ovarian", "growth": "-53% (active)"}
{"Molecule": "O=C(NCCCNc1cc(-c2cn(-c3ccccc3)nc2-c2cccc(O)c2)ccn1)c1ccccc1", "Measurement Target": "OVCAR-8 ovarian", "growth": "27.5% (inactive)"}
{"Molecule": "COc1cc(C(=O)/C=C/c2c(-c3ccc(F)cc3)nc3sc(C)cn23)cc(OC)c1OC", "Measurement Target": "OVCAR-8 ovarian", "growth": "22.5% (inactive)"}
{"Molecule": "COc1ccc(OC)c2c1[nH]c(=O)c1c3ncccc3cn21", "Measurement Target": "OVCAR-8 ovarian", "growth": "16.8% (inactive)"}
{"Molecule": "Cc1c(O)cc(-c2cnc(N/N=C\\c3ccc(Cl)cc3)s2)c(O)c1C", "Measurement Target": "OVCAR-8 ovarian", "growth": "60.7% (inactive)"}
{"Molecule": "Cc1ccc2nc(NC(=O)CSc3nc(Nc4ccc([N+](=O)[O-])cc4)c(C#N)c(-c4ccccc4)n3)sc2c1", "Measurement Target": "OVCAR-8 ovarian", "growth": "91.5% (inactive)"}
{"Molecule": "COC1=C(OC)C(=O)C(OC)=C(OC)C1=O", "Measurement Target": "OVCAR-8 ovarian", "growth": "93.4% (inactive)"}
{"Molecule": "CC1=CN2C(=O)C3C4=C(CCCC4)SC3N=C2CN1c1c(C)cccc1C (stereo not given)", "Measurement Target": "OVCAR-8 ovarian", "growth": "109% (inactive)"}
